- System: HOP-92 NSCLC
- Assay Info: NCI tumour cell line growth inhibition, 48 h
Where a SMILES comes first, the peptide text is derived from it. [ ]: non-standard residue; d: D form. Phe(ol) = N[C@H](CO)Cc1ccccc1; Aib = CC(C)(N)C(=O)O
TGI values for the molecules below.
// note: answer is a bare numeric in µM

Solved entries (count: 2):
Molecule | Measurement Label | Value Unit | Reported Result
CC(=O)NC(C)(C)C(=O)N1CCC[C@H]1C(=O)NC(C)(C)C(=O)N[C@@H](C)C(=O)NC(C)(C)C(=O)NC(C)(C)C(=O)N[C@@H](CCC(N)=O)C(=O)NC(C)(C)C(=O)N[C@H](C(=O)NC(C)(C)C(=O)NCC(=O)N[C@@H](CC(C)C)C(=O)NC(C)(C)C(=O)N1CCC[C@H]1C(=O)N[C@H](C(=O)NC(C)(C)C(=O)NC(C)(C)C(=O)N[C@@H](CCC(N)=O)C(=O)N[C@@H](CCC(N)=O)C(=O)N[C@H](CO)Cc1ccccc1)C(C)C)C(C)C (Ac-[Aib]P[Aib]A[Aib][Aib]Q[Aib]V[Aib]GL[Aib]PV[Aib][Aib]QQ[Phe(ol)]) | TGI | µM | 3.58
CC(Nc1c(C#N)cnc2ccc(-c3cncc(O)c3)cc12)c1ccccc1 (centres undefined) | TGI | µM | 6.02

Next item in the queue.
Observed TGI, HOP-92 NSCLC, Cc1cc2nc3c4cc(C#N)ccc4n(CCN(C)C)c3nc2cc1C : 4.58
